Listed here are compounds together with their documented normalized growth.
Experiment: chemical genetic growth profiling, strain panel (AID 1159580);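 note: tested at 20 µM; growth read once vehicle control cultures reached saturation at 30 °C; 1 = growth at the plate median or of vehicle wells; lower values mean less growth of the strain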
Conditions: S. cerevisiae deletion strains, growth OD, locus YNR049C, strain mso1, active compounds read low
The campaign covered roughly 5,500 compounds. About 2,000 (36%) were called active. Not shown: some 18% with an inconclusive outcome. The list shows a part of the results.

>  <Compound>
COc1ccc2cc([C@H](C)C(=O)O)ccc2c1

>  <normalized growth>
0.972

$$$$
>  <Compound>
COc1ccc(OC)c(C(O)C(C)N)c1 (configuration not stated)

>  <normalized growth>
0.99

$$$$
>  <Compound>
COc1cc2c(cc1OC)Cc1cc(OC)c(OC)cc1Cc1cc(OC)c(OC)cc1C2

>  <normalized growth>
1.03

$$$$
>  <Compound>
COc1cc(NS(=O)(=O)c2ccc(N)cc2)nc(OC)n1

>  <normalized growth>
0.979

$$$$
>  <Compound>
NC(=O)c1ccc[n+]([C@@H]2O[C@H](COP(=O)([O-])OP(=O)(O)OC[C@H]3O[C@@H](n4cnc5c(N)ncnc54)[C@H](O)[C@@H]3O)[C@@H](O)[C@H]2O)c1

>  <normalized growth>
1.02

$$$$
>  <Compound>
CC(=O)[C@H]1CCC2C3CCC4=CC(=O)CC[C@]4(C)C3CC[C@@]21C (some centres not stated)

>  <normalized growth>
0.975

$$$$
>  <Compound>
CC(NCCc1ccc(O)cc1)C(O)c1ccc(O)cc1 (configuration not stated)

>  <normalized growth>
0.977

$$$$
>  <Compound>
CCOC(=O)C(C)(C)Oc1ccc(Cl)cc1

>  <normalized growth>
0.985

$$$$
>  <Compound>
CC(C)OC(=O)C(C)(C)Oc1ccc(C(=O)c2ccc(Cl)cc2)cc1

>  <normalized growth>
0.98

$$$$
>  <Compound>
CC(N)C(=O)OC(C)(C)Cc1ccc(Cl)cc1 (configuration not stated)

>  <normalized growth>
1.01

$$$$
>  <Compound>
CCC(=O)O[C@H]1CCC2C3CCC4=CC(=O)CC[C@]4(C)C3CC[C@@]21C (some centres not stated)

>  <normalized growth>
0.932

$$$$
>  <Compound>
CCOC(=O)C(Cc1ccc(O)cc1)NC(C)=O (configuration not stated)

>  <normalized growth>
1.02

$$$$
>  <Compound>
NC(=O)C(c1ccccc1)(c1ccccc1)C1CCN(CCc2ccc3c(c2)CCO3)C1 (configuration not stated)

>  <normalized growth>
1.02

$$$$
>  <Compound>
Cc1cccc(C)c1OCC(C)N (configuration not stated)

>  <normalized growth>
1

$$$$
>  <Compound>
COc1cc(NC(C)CCCN)c2ncccc2c1 (configuration not stated)

>  <normalized growth>
1

$$$$
>  <Compound>
CC(C(=O)O)c1cccc(C(=O)c2ccccc2)c1 (configuration not stated)

>  <normalized growth>
0.995

$$$$
>  <Compound>
COc1cc2c(cc1OC)[C@@H]1C(=O)c3ccc4oc(C(C)C)cc4c3O[C@@H]1CO2

>  <normalized growth>
0.982

$$$$
>  <Compound>
c1cncc(C2CCCCN2)c1 (configuration not stated)

>  <normalized growth>
0.99

$$$$
>  <Compound>
COc1cc2c(cc1OC)[C@@H]1C(=O)c3ccc(O)c(CC=C(C)C)c3O[C@@H]1CO2

>  <normalized growth>
0.999

$$$$
>  <Compound>
CCCCCCCCNC(C)C(O)c1ccc(SC(C)C)cc1 (configuration not stated)

>  <normalized growth>
0.0544

$$$$
>  <Compound>
CCOC(=O)C(=O)C1(C(=O)OCC)Oc2cc(OC)cc(OC)c2C(=O)C1c1ccccc1 (configuration not stated)

>  <normalized growth>
0.966

$$$$
>  <Compound>
CC1=C(C/C=C(\C)CCC[C@H](C)CCC[C@H](C)CCCC(C)C)C(=O)c2ccccc2C1=O

>  <normalized growth>
1

$$$$

---

Assay: chemical genetic growth profiling, strain panel (AID 1159580)
Details: S. cerevisiae deletion strains, growth OD, locus YGL086W, strain mad1, active compounds read low
Among all 5,500 compounds or so, about 2,000 (36%) were called active. Inconclusive results (about 18%) are left out. Some of the results follow.

>  <Molecule>
CC1=C(/C=C/C(C)=C/C=C/C(C)=C/C=C/C=C(C)/C=C/C=C(C)/C=C/C23OC2(C)CC(O)CC3(C)C)C(C)(C)CC(O)C1 (centres undefined)

>  <normalized growth>
1.05 (inactive)

$$$$
>  <Molecule>
O=C(O)c1cc2ccccc2[nH]1

>  <normalized growth>
1.02 (inactive)

$$$$
>  <Molecule>
O=C(O)c1cc2ccccc2c(Cc2c(O)c(C(=O)O)cc3ccccc23)c1O

>  <normalized growth>
1 (inactive)

$$$$
>  <Molecule>
CO[C@H]1[C@H](O)[C@H](O[C@H]2CC[C@]3(C)C4CC[C@]5(C)C(C6=CC(=O)OC6)CC[C@]5(O)C4CC[C@@H]3C2)O[C@@H](C)[C@@H]1O (some centres undefined)

>  <normalized growth>
1.01 (inactive)

$$$$

---

normalized growth values, listed per item
Assay: chemical genetic growth profiling, strain panel (AID 1159580);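 note: tested at 20 µM; growth read once vehicle control cultures reached saturation at 30 °C; 1 = growth at the plate median or of vehicle wells; lower values mean less growth of the strain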
Details: S. cerevisiae deletion strains, growth OD, locus YOR136W, strain idh2, active compounds read low
Among all 5,500 compounds or so, about 2,000 (36%) were called active. Another 18% or so got no clear call; they are omitted. This is one part of the list.

>  <Compound>
O=C(CC[N+](=O)[O-])OC[C@H]1O[C@@H](O)[C@H](OC(=O)CC[N+](=O)[O-])[C@@H](OC(=O)CC[N+](=O)[O-])[C@@H]1OC(=O)CC[N+](=O)[O-]

>  <normalized growth>
1.01

$$$$
>  <Compound>
CCN(CC)CCCC(C)Nc1c2ccc(Cl)cc2nc2ccc(OC)cc12 (centres undefined)

>  <normalized growth>
0.928

$$$$
>  <Compound>
c1ccc(N=Nc2ccccc2)cc1

>  <normalized growth>
1.02

$$$$
>  <Compound>
COc1cc(NS(=O)(=O)c2ccc(N)cc2)nc(OC)n1

>  <normalized growth>
0.991

$$$$
>  <Compound>
CCOC(=O)C(C)(C)Oc1ccc(Cl)cc1

>  <normalized growth>
1

$$$$
>  <Compound>
CC(C[N+](C)(C)C)OC(N)=O (centres undefined)

>  <normalized growth>
0.968

$$$$
>  <Compound>
COc1cc2c(cc1OC)C(=O)OC2

>  <normalized growth>
1

$$$$
>  <Compound>
CCC(C)C(=O)O[C@H]1[C@H](O)C2C(CN3CC(C)CCC3[C@@]2(C)O)C2C[C@]34O[C@]5(O)C(OC(=O)C(C)(O)C(C)O)CC[C@@]3(C)C5C(OC(C)=O)[C@@H](OC(C)=O)C4[C@@]21O (some centres undefined)

>  <normalized growth>
1

$$$$
>  <Compound>
CC1=C(C(C)O)C2=NC1C=c1[nH]c(c(C)c1C(C)O)=Cc1[nH]c(c(CCC(=O)O)c1C)C=c1[nH]c(c(C)c1CCC(=O)O)=C2 (centres undefined)

>  <normalized growth>
1.01

$$$$

---

Assay: chemical genetic growth profiling, strain panel (AID 1159580);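 note: tested at 20 µM; growth read once vehicle control cultures reached saturation at 30 °C; 1 = growth at the plate median or of vehicle wells; lower values mean less growth of the strain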
Conditions: S. cerevisiae deletion strains, growth OD, locus YOR144C, strain elg1, active compounds read low
In all, about 5,500 compounds went through this assay and about 2,000 (36%) were called active. Another 18% or so got no clear call; they are omitted. The list shows a part of the results.
Rule: measured normalized growth below 1 gets Fulfilled; anything equal to or greater than 1 gets Not fulfilled.

>  <Molecule>
CCCCCCCCNC(C)C(O)c1ccc(SC(C)C)cc1 (centres undefined)

>  <Class assignment>
Fulfilled

$$$$
>  <Molecule>
C[C@]12CCC(=O)C=C1CCC1C2CC[C@@]2(C)C1CC[C@@H]2O (some centres undefined)

>  <Class assignment>
Not fulfilled

$$$$
>  <Molecule>
CN(C)C(=S)SSC(=S)N(C)C

>  <Class assignment>
Fulfilled

$$$$
>  <Molecule>
CC(=O)[C@H]1CCC2C3CCC4=CC(=O)CC[C@]4(C)C3CC[C@@]21C (some centres undefined)

>  <Class assignment>
Fulfilled

$$$$

---

Below: a set of entries, each annotated with reported normalized growth.
Experiment: chemical genetic growth profiling, strain panel (AID 1159580);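 note: tested at 20 µM; growth read once vehicle control cultures reached saturation at 30 °C; 1 = growth at the plate median or of vehicle wells; lower values mean less growth of the strain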
Conditions: S. cerevisiae deletion strains, growth OD, locus YKL068W, active compounds read low
In all, about 5,500 compounds went through this assay and about 2,000 (36%) were called active. Inconclusive results (about 18%) are left out. This is one part of the list.

>  <Molecule>
CCOC(=O)c1c(C)cc(O)c(C)c1O

>  <normalized growth>
0.945

$$$$
>  <Molecule>
CO[C@H]1[C@H](O)[C@H](O[C@H]2CC[C@]3(C)C4CC[C@]5(C)C(C6=CC(=O)OC6)CC[C@]5(O)C4CC[C@@H]3C2)O[C@@H](C)[C@@H]1O (stereo not given in full)

>  <normalized growth>
1

$$$$
>  <Molecule>
Cc1cc(O)c(C)c(O)c1C(=O)O

>  <normalized growth>
0.982

$$$$
>  <Molecule>
C=C(C)[C@@H]1[C@H]2OC(=O)[C@@H]1[C@]1(O)C[C@H]3O[C@]34C(=O)O[C@H]2[C@]14C

>  <normalized growth>
0.997

$$$$
>  <Molecule>
CC(C)(O)[C@@H]1[C@H]2OC(=O)[C@@H]1[C@]1(O)C[C@H]3O[C@]34C(=O)O[C@H]2[C@]14C

>  <normalized growth>
1

$$$$
>  <Molecule>
COc1ccc2c3c1O[C@H]1C[C@@H](O)C=C[C@@]31CCN(C)C2

>  <normalized growth>
1.02

$$$$
>  <Molecule>
O=C(O)C1(O)C[C@@H](O)C(O)[C@H](O)C1 (stereo not given in full)

>  <normalized growth>
1.01

$$$$
>  <Molecule>
c1cncc(C2CCCCN2)c1 (stereo not given)

>  <normalized growth>
1

$$$$
>  <Molecule>
Cc1cc(O)c(C=O)c(O)c1C(=O)O

>  <normalized growth>
0.987

$$$$
>  <Molecule>
OCCN1C[C@@H](O)[C@@H](O)C(O)C1CO (stereo not given in full)

>  <normalized growth>
1.01

$$$$
